# study_system: panel of more than 300 wild-type and mutant kinases (313 kinase panel) (Homo sapiens)
# experiment_notes: Kinase profiling in a biochemical assay panel (mobility shift assays and ELISA), %-inhibition at 1 μM; selectivity entropy
# recorded_conditions: kinase NDR2; 1 μM
Each record here notes measured %-inhibition of NDR2.
I only need the number, in %, no unit after it.

1. C[C@@H](Oc1cc(-c2cnn(C3CCNCC3)c2)cnc1N)c1c(Cl)ccc(F)c1Cl    -4.76
2. CC(=O)Nc1cccc(-n2c(=O)n(C3CC3)c(=O)c3c(Nc4ccc(I)cc4F)n(C)c(=O)c(C)c32)c1    -1.48
3. Cc1cn(-c2cc(NC(=O)c3ccc(C)c(Nc4nccc(-c5cccnc5)n4)c3)cc(C(F)(F)F)c2)cn1    -14

Continue with the next molecule.
Ask | Given the molecule N#CC[C@H](C1CCCC1)n1cc(-c2ncnc3[nH]ccc23)cn1 , what is its reported %-inhibition of NDR2?
Reply | 89

---

# System: forty-four human cancer cell lines
# experiment_notes: Cell proliferation assay (ATPlite, 72 hours) in the 44 cell line Oncolines panel
# Assay type: cell-based
# recorded_conditions: Homo sapiens, A549, read-out: cell panel IC50, A-549
value_kind: pIC50
// pIC50 is dimensionless: -log10 of concentration (M)

1) Cc1nc(Nc2ncc(C(=O)Nc3c(C)cccc3Cl)s2)cc(N2CCN(CCO)CC2)n1 [dasatinib]    4.99
2) Cc1cn(-c2cc(NC(=O)c3ccc(C)c(Nc4nccc(-c5cccnc5)n4)c3)cc(C(F)(F)F)c2)cn1 [nilotinib]    5.14

Ask | Report pIC50 for CN(C)C/C=C/C(=O)Nc1cc2c(Nc3ccc(F)c(Cl)c3)ncnc2cc1O[C@H]1CCOC1 [afatinib] please.
Reply | 5.50

---

// %-inhibition of PIM1 lookup, one value per entry
# study_system: panel of more than 300 wild-type and mutant kinases (313 kinase panel) (Homo sapiens, UniProt P11309)
# experiment_notes: Kinase profiling in a biochemical assay panel (mobility shift assays and ELISA), %-inhibition at 1 μM; selectivity entropy
# recorded_conditions: kinase PIM1; 1 μM
All answers are understood in %, so give the number only.

1) C[C@@H](Oc1cc(-c2cnn(C3CCNCC3)c2)cnc1N)c1c(Cl)ccc(F)c1Cl [crizotinib]    -7
2) COc1cc2c(Nc3ccc(Br)cc3F)ncnc2cc1OCC1CCN(C)CC1 [vandetanib]    -9
3) CO[C@H]1C[C@@H]2CC[C@@H](C)[C@@](O)(O2)C(=O)C(=O)N2CCCC[C@H]2C(=O)O[C@H]([C@H](C)C[C@@H]2CC[C@@H](OCCO)[C@H](OC)C2)CC(=O)[C@H](C)/C=C(\C)[C@@H](O)[C@@H](OC)C(=O)[C@H](C)C[C@H](C)/C=C/C=C/C=C/1C [everolimus]    -9

Ask | Need %-inhibition of PIM1 of CS(=O)(=O)CCNCc1ccc(-c2ccc3ncnc(Nc4ccc(OCc5cccc(F)c5)c(Cl)c4)c3c2)o1 [lapatinib] , thanks.
Reply | 0.601

Ask | Please give the result for CO[C@H]1C[C@@H]2CC[C@@H](C)[C@@](O)(O2)C(=O)C(=O)N2CCCC[C@H]2C(=O)O[C@H]([C@H](C)C[C@@H]2CC[C@@H](OC(=O)C(C)(CO)CO)[C@H](OC)C2)CC(=O)[C@H](C)/C=C(\C)[C@@H](O)[C@@H](OC)C(=O)[C@H](C)C[C@H](C)/C=C/C=C/C=C/1C [temsirolimus] too.
Reply | -8

---

# study_system: panel of more than 300 wild-type and mutant kinases (313 kinase panel) (Homo sapiens, UniProt O15111)
# Sequence (O15111 1-745): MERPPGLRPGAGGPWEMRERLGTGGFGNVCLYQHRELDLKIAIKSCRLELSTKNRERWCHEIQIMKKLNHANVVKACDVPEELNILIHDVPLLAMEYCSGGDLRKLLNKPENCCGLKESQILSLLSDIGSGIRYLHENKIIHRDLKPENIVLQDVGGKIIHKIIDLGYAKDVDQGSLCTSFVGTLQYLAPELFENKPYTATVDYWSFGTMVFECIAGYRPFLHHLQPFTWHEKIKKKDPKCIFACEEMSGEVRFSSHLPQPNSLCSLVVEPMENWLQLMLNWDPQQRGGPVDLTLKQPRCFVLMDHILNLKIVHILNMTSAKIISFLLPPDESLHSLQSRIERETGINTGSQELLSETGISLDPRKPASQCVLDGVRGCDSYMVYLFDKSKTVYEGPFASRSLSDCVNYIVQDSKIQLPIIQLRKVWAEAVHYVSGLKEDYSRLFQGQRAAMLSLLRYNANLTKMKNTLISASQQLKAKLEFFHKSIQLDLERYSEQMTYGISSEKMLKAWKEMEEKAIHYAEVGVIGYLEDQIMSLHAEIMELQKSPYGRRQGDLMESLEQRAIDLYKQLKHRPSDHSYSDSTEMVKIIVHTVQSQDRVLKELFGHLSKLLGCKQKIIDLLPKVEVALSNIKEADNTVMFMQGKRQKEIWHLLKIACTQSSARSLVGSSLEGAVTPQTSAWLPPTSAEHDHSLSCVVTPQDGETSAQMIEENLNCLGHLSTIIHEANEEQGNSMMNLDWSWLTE
# experiment_notes: Kinase profiling in a biochemical assay panel (mobility shift assays and ELISA), %-inhibition at 1 μM; selectivity entropy
# recorded_conditions: kinase IKKα; compound at 1 μM
value_kind: %-inhibition of IKKα (%)
// units = %; emit number, no label

Use these answered entries as a reference point.
1) CC(=O)Nc1cccc(-n2c(=O)n(C3CC3)c(=O)c3c(Nc4ccc(I)cc4F)n(C)c(=O)c(C)c32)c1    2.63
2) O=S(=O)(c1cccc2cnccc12)N1CCCNCC1    8
3) CO[C@H]1C[C@@H]2CC[C@@H](C)[C@@](O)(O2)C(=O)C(=O)N2CCCC[C@H]2C(=O)O[C@H]([C@H](C)C[C@@H]2CC[C@@H](OCCO)[C@H](OC)C2)CC(=O)[C@H](C)/C=C(\C)[C@@H](O)[C@@H](OC)C(=O)[C@H](C)C[C@H](C)/C=C/C=C/C=C/1C    -3.22
4) COc1cc2nccc(Oc3ccc(NC(=O)C4(C(=O)Nc5ccc(F)cc5)CC4)cc3)c2cc1OC [cabozantinib]    -1.89
5) Cc1cn(-c2cc(NC(=O)c3ccc(C)c(Nc4nccc(-c5cccnc5)n4)c3)cc(C(F)(F)F)c2)cn1    1.27

Ask | Returns the measured %-inhibition of IKKα for the input compound. Input: CS(=O)(=O)CCNCc1ccc(-c2ccc3ncnc(Nc4ccc(OCc5cccc(F)c5)c(Cl)c4)c3c2)o1
Reply | -9

Ask | One more compound: C[C@@H](Oc1cc(-c2cnn(C3CCNCC3)c2)cnc1N)c1c(Cl)ccc(F)c1Cl
Reply | -1.78

Ask | Follow-up entry: CCN(CC)CCNC(=O)c1c(C)[nH]c(/C=C2\C(=O)Nc3ccc(F)cc32)c1C
Reply | 0.813

Ask | Please answer likewise for N#CC[C@H](C1CCCC1)n1cc(-c2ncnc3[nH]ccc23)cn1
Reply | -2.5

Ask | Query CCCS(=O)(=O)Nc1ccc(F)c(C(=O)c2c[nH]c3ncc(-c4ccc(Cl)cc4)cc23)c1F next
Reply | -1.89

---

# study_system: panel of more than 300 wild-type and mutant kinases (313 kinase panel) (Homo sapiens)
# experiment_notes: Kinase profiling in a biochemical assay panel (mobility shift assays and ELISA), %-inhibition at 1 μM; selectivity entropy
# recorded_conditions: kinase CaMK2δ; 1 μM compound
value_kind: %-inhibition, CaMK2δ (%)
Field format: number, assumed %, no unit text.

Here are 6 compounds together with their reported answers.
1. CC(C)(C)c1nc(-c2cccc(NS(=O)(=O)c3c(F)cccc3F)c2F)c(-c2ccnc(N)n2)s1 [dabrafenib]    -0.23
2. Cc1nc(Nc2ncc(C(=O)Nc3c(C)cccc3Cl)s2)cc(N2CCN(CCO)CC2)n1 [dasatinib]    -7.61
3. O=S(=O)(c1cccc2cnccc12)N1CCCNCC1 [fasudil]    3.46
4. CNC(=O)c1cc(Oc2ccc(NC(=O)Nc3ccc(Cl)c(C(F)(F)F)c3)c(F)c2)ccn1 [regorafenib]    1.53
5. N#CC[C@H](C1CCCC1)n1cc(-c2ncnc3[nH]ccc23)cn1 [ruxolitinib]    81
6. CC(=O)Nc1cccc(-n2c(=O)n(C3CC3)c(=O)c3c(Nc4ccc(I)cc4F)n(C)c(=O)c(C)c32)c1 [trametinib]    -2.19

Ask | Item COc1cc2nccc(Oc3ccc(NC(=O)C4(C(=O)Nc5ccc(F)cc5)CC4)cc3)c2cc1OC [cabozantinib] has what recorded %-inhibition, CaMK2δ?
Reply | 0.942

Ask | Further, for CS(=O)(=O)CCNCc1ccc(-c2ccc3ncnc(Nc4ccc(OCc5cccc(F)c5)c(Cl)c4)c3c2)o1 [lapatinib] ?
Reply | -33

Ask | Try CO[C@H]1C[C@@H]2CC[C@@H](C)[C@@](O)(O2)C(=O)C(=O)N2CCCC[C@H]2C(=O)O[C@H]([C@H](C)C[C@@H]2CC[C@@H](OC(=O)C(C)(CO)CO)[C@H](OC)C2)CC(=O)[C@H](C)/C=C(\C)[C@@H](O)[C@@H](OC)C(=O)[C@H](C)C[C@H](C)/C=C/C=C/C=C/1C [temsirolimus] next.
Reply | -4

Ask | Also COc1cc2c(Nc3ccc(Br)cc3F)ncnc2cc1OCC1CCN(C)CC1 [vandetanib] ?
Reply | 10
